- testSummary: AUC (0 to infinity) in ICR mouse at 10 mg/kg, IG by UPLC-MS/MS analysis
- Format: ADME, organism-based
- Set-up: dose 10 mg/kg, route ig
- testContext: in vivo, po
Listed here: items and their measured AUC(0-inf).
readoutName: AUC(0-inf)

>>> result("COCCCOc1cc2c(cc1OC)-c1cc(=O)c(C(=O)O)cn1[C@H](C(C)C)C2")
"3080 ng·h/mL"
>>> result("Fc1cc(N2CC(F)C2)cc(N2[C@H]3CC[C@@H]2c2cnc(-c4ncccn4)nc2C3)n1")
"27400 ng·h/mL"
>>> result("CN(C)c1cc(F)nc(N2[C@@H]3CCC[C@H]2c2cnc(-c4ncccn4)nc2C3)c1 (single isomer, unassigned)")
"31900 ng·h/mL"

###

- testSummary: AUC (0 to t) in ICR mouse at 10 mg/kg, IG by UPLC-MS/MS analysis
- Assay type: ADME, organism-based
- Design: dose 10 mg/kg, route ig
- testContext: in vivo, po
Listed here: items and their measured AUC(0-t).
readoutName: AUC(0-t) (ng·h/mL)

>>> numericreadout("CN(C)c1cc(F)nc(N2[C@@H]3CCC[C@H]2c2cnc(-c4ncccn4)nc2C3)c1 (single isomer, unassigned)")
31000
>>> numericreadout("Fc1cc(N2CC(F)C2)cc(N2[C@H]3CC[C@@H]2c2cnc(-c4ncccn4)nc2C3)n1")
27400
>>> numericreadout("COCCCOc1cc2c(cc1OC)-c1cc(=O)c(C(=O)O)cn1[C@H](C(C)C)C2")
3060

###

Listed here: items and their measured bioavailability.
- testSummary: Bioavailability in ICR mouse at 1 mg/kg, iv by UPLC-MS/MS analysis
- Type: ADME, organism-based
- testContext: in vivo
readoutName: bioavailability (%)

>>> numericreadout("Fc1cc(N2CC(F)C2)cc(N2[C@H]3CC[C@@H]2c2cnc(-c4ncccn4)nc2C3)n1")
80.2
>>> numericreadout("COCCCOc1cc2c(cc1OC)-c1cc(=O)c(C(=O)O)cn1[C@H](C(C)C)C2")
88.6
>>> numericreadout("CN(C)c1cc(F)nc(N2[C@@H]3CCC[C@H]2c2cnc(-c4ncccn4)nc2C3)c1 (single isomer, unassigned)")
125

###

- Test system: Hepatitis B virus
- testSummary: Antiviral activity against HBV infected in human HepG2.2.15 cells assessed as inhibition of HBV DNA incubated for 6 days with replacement of fresh media for every 72 hrs by real-time qPCR analysis
- Type: functional, organism-based
pEC50: −log10 of the molar value.
Label criterion not met if pEC50 falls below 7; label criterion met in every other case.

>>> classification("COCCOc1cc(F)nc(N2[C@H]3CC[C@@H]2c2cnc(-c4ncccn4)nc2C3)c1")
"criterion met"
>>> classification("Fc1cc(N2CC(F)C2)cc(N2[C@H]3CC[C@@H]2c2cnc(-c4ncccn4)nc2C3)n1")
"criterion met"
>>> classification("Fc1cc(N2CC(F)C2)cc(N2[C@@H]3CCC[C@H]2c2cnc(-c4ccccn4)nc2C3)n1 (single isomer, unassigned)")
"criterion not met"
>>> classification("COC1CN(c2cc(F)nc(N3[C@H]4CC[C@@H]3c3cnc(-c5ncccn5)nc3C4)c2)C1")
"criterion met"
>>> classification("COc1cc(F)nc(N2[C@@H]3CCC[C@H]2c2cnc(-c4ncccn4)nc2C3)c1 (single isomer, unassigned)")
"criterion met"
>>> classification("COCCN(C)c1cc(F)nc(N2C[C@@H]3CC[C@H]2c2cnc(-c4ncccn4)nc23)c1")
"criterion not met"
>>> classification("COC1CN(c2cc(F)nc(N3[C@@H]4CCC[C@H]3c3cnc(-c5ncccn5)nc3C4)c2)C1 (single isomer, unassigned)")
"criterion met"
>>> classification("CN(C)c1cc(F)nc(N2[C@@H]3CCC[C@H]2c2cnc(-c4ccccn4)nc2C3)c1 (single isomer, unassigned)")
"criterion not met"
>>> classification("COC1CCN(c2cc(F)nc(N3[C@H]4CC[C@@H]3c3cnc(-c5ncccn5)nc3C4)c2)C1 (stereo partly specified)")
"criterion not met"
>>> classification("COc1cc(N2[C@H]3CC[C@@H]2c2cnc(-c4ncccn4)nc2C3)cc(F)c1F")
"criterion not met"
>>> classification("CN(C)c1cc(F)nc(N2[C@@H]3CCC[C@H]2c2cnc(-c4ncccn4)nc2C3)c1 (single isomer, unassigned)")
"criterion met"
>>> classification("Fc1cc(N2CCOCC2)cc(N2[C@H]3CC[C@@H]2c2cnc(-c4ncccn4)nc2C3)n1")
"criterion met"
>>> classification("COCCN(C)c1cc(F)nc(N2[C@H]3CC[C@@H]2c2cnc(-c4ncccn4)nc2C3)c1")
"criterion met"
>>> classification("COCCCOc1cc2c(cc1OC)-c1cc(=O)c(C(=O)O)cn1[C@H](C(C)C)C2")
"criterion met"
>>> classification("Fc1cc(N2CC(F)C2)cc(N2[C@@H]3CCC[C@H]2c2cnc(-c4ncccn4)nc2C3)n1 (single isomer, unassigned)")
"criterion met"
>>> classification("CN(C)c1cc(F)nc(N2[C@H]3CC[C@@H]2c2cnc(-c4ncccn4)nc2C3)c1")
"criterion met"
